# Test system: UACC-62
# experiment-notes: Cytotoxicity against human UACC62 cells after 48 hrs by SRB assay
# Type: functional, cell-based
# condition-details: UACC-62, 48 h
Each entry below carries its recorded IC50.
Give just the numeric value; µM need not be written.

Retrieve IC50 on UACC-62; query CC(C)=CC(=O)N/C=C/C(C)=C/[C@@H](C)[C@H]1C/C(C)=C/C=C/CC[C@H](OC(N)=O)[C@@H](O)/C=C/[C@@H](O)CCC/C=C/C(=O)O1 [PALMEROLIDE A] 0.024

Find IC50 for C=C(C)CC(=O)N/C=C/C(C)=C/[C@@H](C)[C@H]1C/C(C)=C/C=C/CC[C@H](OC(N)=O)[C@@H](O)/C=C/[C@@H](O)CCC/C=C/C(=O)O1 [PALMEROLIDE F] on UACC-62 and write it down. 0.758

Tell me its IC50 on UACC-62: C=C(C)C/C(C)=C\C(=O)N/C=C/C(C)=C/[C@@H](C)[C@H]1C/C(C)=C/C=C/CC[C@H](OC(N)=O)[C@@H](O)/C=C/[C@@H](O)CCC/C=C/C(=O)O1 [PALMEROLIDE D] 0.002

Quote UACC-62 IC50 for entry CC(C)=CC(=O)N/C=C/C(C)=C\[C@@H](C)[C@H]1C/C(C)=C/C=C/CC[C@H](OC(N)=O)[C@@H](O)/C=C/[C@@H](O)CCC/C=C/C(=O)O1 [PALMEROLIDE G] . 1.21

Would you kindly look at the next entry?
Write down measured IC50 (UACC-62) for this compound. C/C(C=O)=C\[C@@H](C)[C@H]1C/C(C)=C/C=C/CC[C@H](OC(N)=O)[C@@H](O)/C=C/[C@@H](O)CCC/C=C/C(=O)O1 [PALMEROLIDE E] 5000

Ref: ChEMBL document CHEMBL1914347
